PIC50 listing for selected compounds.
ASSAYED_TARGET: ACAT
TEST_METHOD_NOTES: Evaluation of ACAT inhibitory activity (rat liver enzyme preparation, [14C]-oleoyl CoA substrate)
Type: biochemical
CONDITION_CONTEXT: ACAT from liver of rats on high-cholesterol feed; 30° C.; pIC50 from concentration-response curve by the nonlinear least square method
OBSERVED_PROPERTY: PIC50

>>> reading("CCCCCCCN(Cc1ccc(-c2ccccc2-c2nnn[nH]2)cc1)C(=O)NC1CCCCC1 [Compound of the formula (9)]")
5.18
>>> reading("CCCCCN(Cc1ccc(-c2ccccc2-c2nnn[nH]2)cc1)C(=O)Nc1c(C(C)C)cccc1C(C)C [Compound of the formula (4)]")
5.72
>>> reading("CCCCCN(CC(=O)Nc1c(C(C)C)cccc1C(C)C)Cc1ccc(-c2ccccc2-c2nnn[nH]2)cc1 [Compound of the formula (13)]")
5.39
>>> reading("CCCCCN(Cc1ccc(-c2ccccc2NS(=O)(=O)C(F)(F)F)cc1)C(=O)Nc1c(F)cc(F)cc1F [Compound of the formula (11)]")
5.71
>>> reading("CCCCCN(Cc1ccc(-c2ccccc2-c2nnn[nH]2)cc1)C(=O)Nc1c(F)cc(F)cc1F [Compound of the formula (6)]")
5.52
>>> reading("CCCCCCCN(Cc1ccc(-c2ccccc2-c2nnn[nH]2)cc1)C(=O)Nc1c(F)cc(F)cc1F [Compound of the formula (7)]")
6.23
>>> reading("CCCCCN(Cc1ccc(-c2ccccc2-c2nnn[nH]2)cc1)C(=O)Nc1c(C)cc(C)cc1C [Compound of the formula (5)]")
5.65
>>> reading("CCCCCN(Cc1ccc(-c2ccccc2NC(=O)C(F)(F)F)cc1)C(=O)Nc1c(F)cc(F)cc1F [Compound of the formula (10)]")
6.57
>>> reading("CCCCCN(CC(=O)Nc1c(C)cc(C)cc1C)Cc1ccc(-c2ccccc2-c2nnn[nH]2)cc1 [Compound of the formula (14)]")
5.23
>>> reading("CCCCCCCN(Cc1ccc(-c2ccccc2-c2nnn[nH]2)cc1)C(=O)Nc1ccc(F)cc1F [Compound of the formula (8)]")
5.49
>>> reading("CCCCCN(CC(=O)Nc1c(F)cc(F)cc1F)Cc1ccc(-c2ccccc2-c2nnn[nH]2)cc1 [Compound of the formula (15)]")
5.21
>>> reading("CCCCCCCN(Cc1ccc(-c2ccccc2S(=O)(=O)NC(=O)Nc2c(C(C)C)cccc2C(C)C)cc1)C(=O)Nc1c(F)cc(F)cc1F [Compound of the formula (12)]")
6.40
